# assayComment: Solubility of enzalutamide in water
# Type: physicochemical
# conditionDetails: 20° C.±5° C.
readoutKind: solubility (µg/mL)
Answers are plain numbers, in µg/mL.

What value of solubility has been reported for the following compound? CNC(=O)c1ccc(N2C(=S)N(c3ccc(C#N)c(C(F)(F)F)c3)C(=O)C2(C)C)cc1F [Enzalutamide] 2
